test system: NCI-H1299; experiment: Antiproliferative activity against human NCI-H1299 cells assessed as reduction in cell viability at 30 uM incubated for 48 hrs by MTT assay relative to control; type: functional
Tick Yes if inhibition at 30 µM is 30% or greater. Tick No if inhibition at 30 µM is less than 30%.

Solved entries (count: 5):
>>> label_value("Oc1cc(CNc2ccc(Cl)cc2NCc2ccc(F)c(O)c2)ccc1F")
"No"
>>> label_value("Oc1cc(CNc2ccc(Cl)cc2NCc2ccc(Cl)c(O)c2)ccc1Cl")
"Yes"
>>> label_value("O=C(Nc1ccc(Cl)cc1NC(=O)c1cc(O)ccc1Cl)c1cc(O)ccc1Cl")
"Yes"
>>> label_value("Oc1cccc(CNc2ccc(F)cc2NCc2cccc(O)c2)c1")
"Yes"
>>> label_value("O=C(Nc1ccc(F)cc1NC(=O)c1cccc(O)c1)c1cccc(O)c1")
"No"

Assess whether reported inhibition at 30 µM for O=C(Nc1ccc(Cl)cc1NC(=O)c1ccc(F)c(O)c1)c1ccc(F)c(O)c1 sits at 30% or higher.
No

Same question for O=C(Nc1ccc(Cl)cc1NC(=O)c1ccc(Br)c(O)c1)c1ccc(Br)c(O)c1 please.
Yes

Same question for Oc1ccc(Cl)c(CNc2ccc(Cl)cc2NCc2cc(O)ccc2Cl)c1 please.
Yes

Same question for Oc1cc(CNc2ccc(Cl)cc2NCc2ccc(Br)c(O)c2)ccc1Br please.
Yes

Same question for Oc1cccc(SCc2cccc(F)c2CSc2cccc(O)c2)c1 please.
No

Same question for Cc1ccc(O)cc1CNc1ccc(Cl)cc1NCc1cc(O)ccc1C please.
Yes
